Attribution: the kinase profiling compilation of Christmann-Franck et al. (2016)

- experimental-system: PIP4K2C (human)
- assay-procedure: KINOMEscan competition binding
- measurement-setup: compound 10.0 µM

compound	experimental-system	readout-units	kinase still bound, per cent of control
CC1=C(C(=O)Nc2cc3cn[nH]c3cc2F)C(c2ccc(C(F)(F)F)cc2)CC(=O)N1 (configuration not stated)	PIP4K2C (human)	%	98
CCN(CCO)CCCOc1ccc2c(Nc3cc(CC(=O)Nc4cccc(F)c4)[nH]n3)ncnc2c1	PIP4K2C (human)	%	51
CCCS(=O)(=O)Nc1ccc(F)c(C(=O)c2c[nH]c3ncc(Cl)cc23)c1F	PIP4K2C (human)	%	100
COc1cc2ncnc(Nc3cccc(Cl)c3)c2cc1OC	PIP4K2C (human)	%	31
C=CC(=O)Nc1ccc(C(=O)c2sc(Nc3ccc(N4CCN(C)CC4)cc3OC)nc2N)cc1	PIP4K2C (human)	%	20
CC(=O)c1c(C)c2cnc(Nc3ccc(N4CCNCC4)cn3)nc2n(C2CCCC2)c1=O	PIP4K2C (human)	%	1
COc1cc2c(Nc3ccc(NC(=O)c4ccccc4)cc3)ncnc2cc1OCCCN1CCOCC1	PIP4K2C (human)	%	53
O=c1[nH]c2ccccc2n1C1CCN(Cc2ccc(-c3nc4cc5[nH]cnc5cc4nc3-c3ccccc3)cc2)CC1	PIP4K2C (human)	%	83
CNC(=O)Nc1ccc(-c2nc(N3CC4CCC(C3)O4)c3cnn(C4CCC5(CC4)OCCO5)c3n2)cc1	PIP4K2C (human)	%	100
CCN1CCN(Cc2ccc(NC(=O)c3ccc(C)c(/C=C/c4cnc5[nH]ccc5c4OC)c3)cc2C(F)(F)F)CC1	PIP4K2C (human)	%	100
N#Cc1cc(-c2ccnc(Nc3ccc(-n4cnc(-c5cccnc5)n4)cc3)n2)cc(N2CCOCC2)c1	PIP4K2C (human)	%	2.8
N#C/C(=C1/Nc2ccccc2S1)c1ccnc(NCCc2cccnc2)n1	PIP4K2C (human)	%	3.7
